- ASSAY_METHOD_TEXT: Solubility by laser nephelometry in assay conditions
- CONDITION: pH 8, aqueous buffer, kinetic from dmso stock
READOUT_TYPE: solubility

> print(dat)
                        structure.as.smiles  test.result
1  O=c1c(O)c(-c2cc(O)c(O)c(O)c2)oc2cc(O)cc(O)c12     > 100 µM

###

Protein target, amino acids: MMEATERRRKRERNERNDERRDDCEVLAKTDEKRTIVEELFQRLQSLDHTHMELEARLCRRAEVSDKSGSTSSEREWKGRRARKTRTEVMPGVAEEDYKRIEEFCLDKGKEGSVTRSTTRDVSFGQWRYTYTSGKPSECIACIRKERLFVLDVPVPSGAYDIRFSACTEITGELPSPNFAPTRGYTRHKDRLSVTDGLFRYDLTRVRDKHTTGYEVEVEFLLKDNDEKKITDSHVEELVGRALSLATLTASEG
READOUT_TYPE: IC50 (nM)

> print(dat)
                                   compound  test.result
1  O=C1C=C2CC3(O)COc4c(ccc(O)c4O)C3=C2C=C1O (stereo not drawn) [SKI 210893, Hematein]          200
2  O=c1oc2c(O)c(O)cc3c(=O)oc4c(O)c(O)cc1c4c23 [SKI 210886, Ellagic acid]           35
3  O=c1c(O)cc([C@H]2Oc3cc(O)cc(O)c3C[C@H]2O)cc2c([C@H]3Oc4cc(O)cc(O)c4C[C@H]3O)cc(O)c(O)c12 [SKI 209343, Theaflavin]         8800
